This section presents molecules with their documented EC50 values.
Target: Human TRPA1 (Homo sapiens)
Sequence (O75762 whole entry, looked up): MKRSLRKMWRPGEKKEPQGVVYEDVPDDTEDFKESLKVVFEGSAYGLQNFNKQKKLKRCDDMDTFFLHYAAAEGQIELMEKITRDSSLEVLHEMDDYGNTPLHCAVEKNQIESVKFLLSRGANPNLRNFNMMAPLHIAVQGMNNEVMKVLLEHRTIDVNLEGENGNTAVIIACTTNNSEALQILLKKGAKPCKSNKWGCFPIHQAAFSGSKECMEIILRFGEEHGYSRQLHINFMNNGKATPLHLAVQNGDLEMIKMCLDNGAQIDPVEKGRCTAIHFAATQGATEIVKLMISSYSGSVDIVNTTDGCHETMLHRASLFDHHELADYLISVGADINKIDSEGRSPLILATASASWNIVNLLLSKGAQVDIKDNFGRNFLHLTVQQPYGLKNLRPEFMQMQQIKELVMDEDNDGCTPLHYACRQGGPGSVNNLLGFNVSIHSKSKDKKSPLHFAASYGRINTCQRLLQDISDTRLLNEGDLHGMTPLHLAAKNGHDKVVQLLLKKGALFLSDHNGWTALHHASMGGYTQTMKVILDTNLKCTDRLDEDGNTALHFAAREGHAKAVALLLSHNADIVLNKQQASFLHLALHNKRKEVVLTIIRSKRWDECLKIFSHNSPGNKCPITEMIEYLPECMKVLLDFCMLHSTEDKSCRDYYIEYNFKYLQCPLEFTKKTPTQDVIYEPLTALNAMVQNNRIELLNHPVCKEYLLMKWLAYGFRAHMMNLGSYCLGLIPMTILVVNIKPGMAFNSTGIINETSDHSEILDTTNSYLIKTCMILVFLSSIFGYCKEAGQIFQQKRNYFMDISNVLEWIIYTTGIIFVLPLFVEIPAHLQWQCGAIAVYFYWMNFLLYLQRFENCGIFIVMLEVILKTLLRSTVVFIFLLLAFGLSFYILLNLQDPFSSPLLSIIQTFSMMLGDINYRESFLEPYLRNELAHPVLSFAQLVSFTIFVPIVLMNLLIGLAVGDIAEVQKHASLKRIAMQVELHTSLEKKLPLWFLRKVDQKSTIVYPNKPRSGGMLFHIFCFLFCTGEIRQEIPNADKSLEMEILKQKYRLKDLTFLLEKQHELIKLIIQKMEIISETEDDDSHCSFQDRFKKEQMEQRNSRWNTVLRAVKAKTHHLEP
Assay: cell-based
Conditions: pEC50 values for TRPA1 agonism
value_kind: EC50 (nM)

molecule | observed_measurement
COC(=O)c1cccc2c1Oc1ccccc1C=N2 [Compound 24] | 0.0741
CCN(CC)C(=O)c1cccc2c1Cc1ccccc1N=C2 [Compound 5] | 44.7
O=C(O)c1cccc2c1Cc1ccccc1N=C2 [Compound 4] | 363
COC(=O)c1cccc2c1N=Cc1ccccc1C2 [Compound 18] | 27.5
COC(=O)c1ccc2c(c1)N=Cc1ccccc1C2 [Compound 20] | 28.2
COC(=O)c1cccc2c1C=Nc1ccccc1C2 [Compound 19] | 28.8
COC(=O)c1cccc2c1Cc1ccccc1C=N2 [Compound 25] | 0.447
COC(=O)c1cccc2c1Oc1ccccc1N=C2 [Compound 11] | 0.0813
COCCCNC(=O)c1cccc2c1Cc1ccccc1N=C2 [Compound 7] | 5.89
COC(=O)c1ccc2c(c1)C=Nc1ccccc1C2 [Compound 1] | 93.3
COCCCNC(=O)c1cccc2c1Cc1ccccc1N=C2 [Compound 6] | 8.71
CN1CCN(C(=O)c2ccc3c(c2)Cc2ccccc2N=C3)CC1 [Compound 15] | 1620
CN1CCN(C(=O)c2ccc3c(c2)Cc2ccccc2C=N3)CC1 [Compound 8] | 3.16
COC(=O)c1cccc2c1N=Cc1ccccc1C2 [Compound 26] | 38
CCCCOC(=O)c1cccc2c1Cc1ccccc1N=C2 [Compound 14] | 5.62

Ref: patent US8461145B2
